Each recorded value in this set is attributed to paper PMC6499331.

pKd overview
- system.name: T1, StrepSumo-tagged Mit1CII wild type (S. pombe, UniProt Q9P793 1-81)
- T1 construct: The Strep-SUMO tag was left on for stabilization; also called wild-type Mit1CII; source: E. coli BL21(DE3) or Rosetta (DE3), purified (Streptactin, SEC); not shown: Strep-SUMO, N-terminal, kept
- T1 sequence (looked up): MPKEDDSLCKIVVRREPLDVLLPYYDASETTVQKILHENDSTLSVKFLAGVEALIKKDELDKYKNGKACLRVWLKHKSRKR
- experiment.notes: ITC; 25°C; 400 mM NaCl, 50 mM Tris-HCl pH 7.5, 5 mM β-mercaptoethanol; Chp2 or Swi6 at 100 to 500 µM injected into the cell holding StrepSumo-tagged Mit1 constructs at 5 to 50 µM; VP-ITC or Nano ITC (Mit1CIIΔCDL)
- cond: both partners purified
Kindly note that pKd refers to -log10 of the concentration in mol/L and answer with the value alone.

binder | recorded.endpoint | obs.value
Chp2CSD (expressed alone, tag removed, for ITC) (domain or fragment, S. pombe, Chp2, S. pombe, chromoshadow domain (CSD); limits 316-380 are printed for the crystallised CSD construct, not for the ITC sample; source: E. coli BL21(DE3) or Rosetta (DE3), purified (Streptactin, Ulp1, MonoS); not shown: Strep-SUMO, N-terminal, cleaved) KPPFQKKSWEDLVDCVKTVQQLDNGKLIAKIKWKNGYVSTHDNIIIHQKCPLKIIEYYEAHIKFT | pKd | 8.59

Turning to the following binder.
Query: Endpoint output: pKd of Swi6CSD (domain or fragment, S. pombe, UniProt P40381 267-328, looked up, Swi6, HP1 protein, S. pombe, chromoshadow domain (CSD); A crystal structure of the free Swi6CSD dimer (PDB 1E0B) is cited; also called Swi6 chromoshadow domain; source: E. coli BL21(DE3) or Rosetta (DE3), purified (Streptactin, on-column Ulp1 cleavage, SEC); not shown: Strep-SUMO, N-terminal, cleaved) DSWEDLVSSIDTIERKDDGTLEIYLTWKNGAISHHPSTITNKKCPQKMLQFYESHLTFRENE . Value?
Reply: 4.55
